The measured values listed here are drawn from patent US20180057604A1.

TESTED_ON: T1, human TfR extracellular domain with N-terminal His tag (human, UniProt P02786 89-760)
T1 construct: Biotinylated in some assays; also called huTfR; HuTfR
ASSAY_PROCEDURE: SPR, IgG;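 further: His-tagged TfR captured via immobilized anti-His antibody on a CM5 chip, antibody injected in 3-fold dilution series by single cycle kinetics, 1:1 Langmuir or steady-state fit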
TEST_READOUT: Kd (nM)
Answers are plain numbers, in nM.

Please look at this binder and report its Kd: hu15G11.v4 (antibody, V domains shown, IgG; HC 48 M, 67 V, 69 I, 71 V, 73 T) VH: EVQLVQSGAEVKKPGASVKVSCKASGYTFTSYWMHWVRQAPGQRLEWMGEINPTNGRTNYIEKFKSRVTITVDTSASTAYMELSSLRSEDTAVYYCARGTRAYHYWGQGTMVTVSS VL: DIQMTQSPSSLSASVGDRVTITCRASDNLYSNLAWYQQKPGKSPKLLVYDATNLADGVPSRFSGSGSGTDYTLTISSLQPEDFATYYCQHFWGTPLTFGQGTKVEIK
3.89
